# assay.explanation: chemical genetic growth profiling, strain panel (AID 1159580);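 note: tested at 20 µM; growth read once vehicle control cultures reached saturation at 30 °C; 1 = growth at the plate median or of vehicle wells; lower values mean less growth of the strain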
# study.conditions: S. cerevisiae deletion strains, growth OD, locus YOR070C, strain gyp1, hits give low values
About 2,000 (36%) of roughly 5,500 compounds were called active. Not shown: some 18% with an inconclusive outcome. The list shows a part of the results.
// normalized growth lookup, one value per entry
Kindly provide the number alone.

Completed entries (count: 3):
compound	number
OC(CCN1CCCC1)(c1ccccc1)C1CCCCC1 (stereo not given)	1
Nc1ccc(S(=O)(=O)c2ccc(N)cc2)cc1	0.992
CC(C)(Sc1cc(C(C)(C)C)c(O)c(C(C)(C)C)c1)Sc1cc(C(C)(C)C)c(O)c(C(C)(C)C)c1	1

Fill blank: measured normalized growth of the compound `Nc1c2c(nc3ccccc13)CCCC2` is ____. 0.975

---

Listed here are compounds together with their documented normalized growth.
# assay.explanation: chemical genetic growth profiling, strain panel (AID 1159580);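 note: tested at 20 µM; growth read once vehicle control cultures reached saturation at 30 °C; 1 = growth at the plate median or of vehicle wells; lower values mean less growth of the strain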
# study.conditions: S. cerevisiae deletion strains, growth OD, locus YDR195W, strain ref2
The whole screen tested about 5,500 compounds, of which about 2,000 (36%) were called active. Roughly 18% stayed inconclusive and do not appear here. This is one part of the list.
Form rule: numeric answer, no unit written next to it.

> print(dat)
                                   compound  number
1      Cc1ccc(N=CN(C)C=Nc2ccc(C)cc2C)c(C)c1    1.03
2                                N=C(N)SCCN   0.941
3  CC(=O)NC(C(=O)O)C(C)(C)SN=O (centres undefined)   0.949

normalized growth lookup needed for CC(C)CC(N(C)C)C1(c2ccc(Cl)cc2)CCC1 (centres undefined) , thanks. 1.04

---

# assay.explanation: chemical genetic growth profiling, strain panel (AID 1159580);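 note: tested at 20 µM; growth read once vehicle control cultures reached saturation at 30 °C; 1 = growth at the plate median or of vehicle wells; lower values mean less growth of the strain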
# study.conditions: S. cerevisiae deletion strains, growth OD, locus YJL154C, strain vps35, hits give low values
Out of some 5,500 compounds screened, about 2,000 (36%) were called active. About 18% were inconclusive and are not listed. The list shows a part of the results.
// reported normalized growth per item
Just the number, please, no unit after it.

> print(dat)
                                   compound        result.type  number
1                         Cc1cc(O)cc(C)c1Cl  normalized growth    0.96
2  CC(C)=CCCC1(C)C=Cc2c(O)c3c(c(CC=C(C)C)c2O1)OC12C(=CC4CC1C(C)(C)OC2(C/C=C(/C)C(=O)O)C4=O)C3=O (stereo unspecified)  normalized growth   0.983
3  C/C=C(/C)C(=O)OC1CCC2(C)C3CCC4C5(O)CC(O)C6(O)C(CN7CC(C)CCC7C6(C)O)C5(O)CC42OC13O (stereo unspecified)  normalized growth   0.989
4  NC(Cc1c[nH]c2ccccc12)C(=O)O (stereo unspecified)  normalized growth    1.02
5                NC(N)=N/N=C/c1c(Cl)cccc1Cl  normalized growth   0.969

// next entry
Recorded normalized growth of Nc1ccccc1C(=O)CC(N)C(=O)O (stereo unspecified) , please. 0.991

---

# assay.explanation: chemical genetic growth profiling, strain panel (AID 1159580);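 note: tested at 20 µM; growth read once vehicle control cultures reached saturation at 30 °C; 1 = growth at the plate median or of vehicle wells; lower values mean less growth of the strain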
# study.conditions: S. cerevisiae deletion strains, growth OD, locus YML032C, strain rad52, hits give low values
About 2,000 (36%) of roughly 5,500 compounds were called active. About 18% were inconclusive and are not listed. This is one part of the list.
This section presents molecules with their documented normalized growth values.
Form field (numeric): enter value without unit.

> print(dat)
                 molecule  number
1  CNC(=O)O/N=C\C(C)(C)SC   0.993

Which measured normalized growth value corresponds to NC(Cc1c[nH]c2ccccc12)C(=O)O (stereo not drawn) ? 0.992

Request the reported normalized growth associated with `Cc1ccc(-c2cc(C(F)(F)F)nn2-c2ccc(S(N)(=O)=O)cc2)cc1` 1.05
